Target: factor Xa (Homo sapiens)
Construct: Human factors X, Xa, IXa, XIa, and XIIa are purchased from Enzyme Research Laboratories; purchased Enzyme Research Laboratories, South Bend, Ind
Sequence (P00742 235-488 limits assumed): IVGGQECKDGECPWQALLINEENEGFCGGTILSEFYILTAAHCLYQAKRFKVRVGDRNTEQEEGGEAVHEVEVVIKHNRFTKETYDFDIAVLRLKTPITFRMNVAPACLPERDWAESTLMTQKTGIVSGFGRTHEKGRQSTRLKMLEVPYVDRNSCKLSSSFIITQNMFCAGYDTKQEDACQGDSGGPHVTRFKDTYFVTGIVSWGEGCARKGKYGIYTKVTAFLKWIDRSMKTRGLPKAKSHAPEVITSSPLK
Sequence (P00742 41-179 partner limits assumed): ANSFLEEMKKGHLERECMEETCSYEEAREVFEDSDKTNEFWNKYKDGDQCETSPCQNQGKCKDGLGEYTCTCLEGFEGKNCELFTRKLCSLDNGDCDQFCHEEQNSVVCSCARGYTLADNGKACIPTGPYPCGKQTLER
Assay: Serine protease inhibition (Kass), factor Xa
Type: biochemical
Measured Kass Xa, listed per entry for reference.
OBSERVATION TYPE: Kass Xa (L/mol × 10^6)

• Cl.Cn1c(C(=O)NC2(C(=O)N3CCC[C@H]3C(=O)N[C@H](C=O)CCCNC(=N)N)CCCCC2)cc2ccccc21 = 0.024
• Cl.N=C(N)NCCC[C@@H](C=O)NC(=O)[C@@H]1CCCN1C(=O)[C@@H](Cc1ccccc1)NC(=O)Cc1cccnc1 = 0.067
• CCNC(=O)N[C@H](Cc1ccccc1)C(=O)N1CCC[C@H]1C(=O)N[C@H](C=O)CCCNC(=N)N.Cl = 0.21
• CCS(=O)(=O)N[C@H](Cc1ccccc1)C(=O)N1CCC[C@@]1(C)C(=O)N[C@H](C=O)CCCNC(=N)N.Cl = 0.11
• Cl.Cl.N=C(N)NCCC[C@@H](C=O)NC(=O)[C@@H]1CCCN1C(=O)C1(Cc2ccccc2)CCN1 (stereo partly shown) = 0.12
• Cl.Cl.N=C(N)NCCC[C@@H](C=O)NC(=O)[C@@H]1CCCN1C(=O)[C@@]1(Cc2ccccc2)CCCN1.O.O = 0.13
• CCCCC(Cc1ccccc1)(NC(=O)OCC)C(=O)N1CCC[C@H]1C(=O)N[C@H](C=O)CCCNC(=N)N (stereo partly shown) = 0.088

====

Molecular target: Bovine trypsin (Bos taurus, UniProt P00760)
Construct: Bovine trypsin is purchased from Worthington Biochemicals; purchased Worthington Biochemicals, Freehold, N.J
Sequence (P00760 24-246): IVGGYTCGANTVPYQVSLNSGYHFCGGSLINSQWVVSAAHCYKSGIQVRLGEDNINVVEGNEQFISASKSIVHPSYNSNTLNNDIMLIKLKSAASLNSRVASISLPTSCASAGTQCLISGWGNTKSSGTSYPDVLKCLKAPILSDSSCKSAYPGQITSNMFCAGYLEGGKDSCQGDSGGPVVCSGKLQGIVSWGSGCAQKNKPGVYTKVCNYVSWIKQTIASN
Assay: Serine protease inhibition (Kass), trypsin
Assay type: biochemical
Listed molecules paired with reported Kass Trypsin
OBSERVATION TYPE: Kass Trypsin (L/mol × 10^6)

* CS(=O)(=O)N[C@H](Cc1ccccc1)C(=O)N1CCC[C@H]1C(=O)N[C@H](C=O)CCCNC(=N)N.Cl | 220
* CCCN(CCC)S(=O)(=O)c1ccc(C(=O)N[C@H](Cc2ccccc2)C(=O)N2CCC[C@H]2C(=O)N[C@H](C=O)CCCNC(=N)N)cc1.Cl | 15
* Cl.N=C(N)NCCC[C@@H](C=O)NC(=O)[C@@H]1CCCN1C(=O)[C@@H](CC1CCCCC1)NC(=O)c1cc2ccccc2cn1 | 2.5
* Cl.N=C(N)NCCC[C@@H](C=O)NC(=O)[C@@H]1CCCN1C(=O)[C@@H](Cc1ccccc1)NS(=O)(=O)c1ccccc1 | 180
* Cl.N=C(N)NCCC[C@@H](C=O)NC(=O)[C@@H]1CCCN1C(=O)[C@@H](Cc1ccccc1)NS(=O)(=O)c1ccc(C(=O)O)cc1 | 43
* Cl.N=C(N)NCCC[C@@H](C=O)NC(=O)[C@@H]1CCCN1C(=O)[C@@H](Cc1ccccc1)NS(=O)(=O)c1nccs1 | 52
* Cl.Cl.N=C(N)NCCC[C@@H](C=O)NC(=O)[C@@H]1CCCN1C(=O)C1(Cc2ccccc2)CCN1 (stereo partly shown) | 17
* CCOC(=O)NC(CC)(Cc1ccccc1)C(=O)N1CCC[C@H]1C(=O)N[C@H](C=O)CCCNC(=N)N.Cl (stereo partly shown) | 4.7
* CCCC[C@](Cc1ccccc1)(NC(=O)OCC)C(=O)N1CCC[C@H]1C(=O)N[C@H](C=O)CCCNC(=N)N.Cl | 21
* N=C(N)NCCC[C@H](NC(=O)[C@@H]1CCCN1C(=O)C1CC2CCCCC2CN1)C(O)S(=O)(=O)[O-].O=S(=O)(O)O.[Na+] (stereo partly shown) | 137
* Cl.Cn1c(C(=O)NC(C)(Cc2ccccc2)C(=O)N2CCC[C@H]2C(=O)N[C@H](C=O)CCCNC(=N)N)cc2ccccc21 (stereo partly shown) | 0.18
* CCOC(=O)N[C@H](Cc1ccccc1)C(=O)N1CCC[C@H]1C(=O)N[C@H](C=O)CCCNC(=N)N.Cl | 240
* Cl.Cn1c(C(=O)N[C@H](CC2CCCCC2)C(=O)N2CCC[C@H]2C(=O)N[C@H](C=O)CCCNC(=N)N)cc2ccccc21 | 7.9
